These measurements were taken from BindingDB's records for doi:10.1124/mol.58.6.1375.

Target: Gamma-aminobutyric acid receptor subunit rho-3 (Homo sapiens, UniProt A8MPY1)
Sequence (A8MPY1 whole entry): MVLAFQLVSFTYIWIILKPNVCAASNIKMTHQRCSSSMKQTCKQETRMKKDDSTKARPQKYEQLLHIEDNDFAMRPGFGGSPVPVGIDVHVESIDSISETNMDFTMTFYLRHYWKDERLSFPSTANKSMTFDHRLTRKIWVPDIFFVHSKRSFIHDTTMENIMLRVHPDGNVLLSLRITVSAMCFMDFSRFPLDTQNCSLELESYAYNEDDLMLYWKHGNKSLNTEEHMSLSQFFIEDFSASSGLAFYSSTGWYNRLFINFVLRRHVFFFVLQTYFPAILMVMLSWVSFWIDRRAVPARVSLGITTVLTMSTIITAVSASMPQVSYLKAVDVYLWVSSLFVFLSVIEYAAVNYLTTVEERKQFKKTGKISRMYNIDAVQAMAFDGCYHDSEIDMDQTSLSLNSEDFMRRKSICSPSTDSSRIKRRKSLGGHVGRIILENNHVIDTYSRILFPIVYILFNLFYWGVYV
pKi: −log10 of the molar value.
pKi reference
ENDPOINT NAME: pKi

[[record]]
compound = "O=C(O)C1=CCNCC1"
endpoint_name = "pKi"
qualifier = "<"
reading = 5.00

[[record]]
compound = "NCc1cc(=O)[nH]o1"
endpoint_name = "pKi"
qualifier = "="
reading = 6.34

[[record]]
compound = "O=C(O)Cc1c[nH]cn1 [1H-imidazol-4-ylacetic acid]"
endpoint_name = "pKi"
qualifier = "="
reading = 6.82

[[record]]
compound = "NCCCC(=O)O [4-amino-n-[2,3-3H]butyric acid]"
endpoint_name = "pKi"
qualifier = "="
reading = 6.24

[[record]]
compound = "N[C@@H]1C(=O)N2C(C(=O)O)=C(CSc3cnn[nH]3)CS[C@H]12 [CAS_37539-03-0]"
endpoint_name = "pKi"
qualifier = "="
reading = 6.44

